Ref: patent US20120093811A1

Molecular target: T1, VEGF-D (recombinant human; source not given) (human, UniProt O43915 89-205, limits assumed)
T1 construct: also used here as target of IC50 values averaged over Source 1 and Source 2; also called vascular endothelial growth factor-D
T1 sequence: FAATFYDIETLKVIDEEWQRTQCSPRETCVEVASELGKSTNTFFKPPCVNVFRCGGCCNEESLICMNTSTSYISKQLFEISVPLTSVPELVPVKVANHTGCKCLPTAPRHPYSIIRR
Experiment: SPR (BIAcore), VEGF-D amine-coupled on CM5, purified scFv as analyte
assay_endpoint: Kd (nM)
Give just the numeric value; nM need not be written.

binder scFv clone F61 (scFv) scFv: QVQLVQSGAEVKQPGASVKVSCKASGYTFTGYNMYWVRQAPGQGLEWMGYIDPYNGDTTYNQKFKGRVTMTTDTSTSTAYMKLRSLRSDDTAVYYCARTSYYGGMDYWGRGTLVTVASGGGASGGGGSGGGGSDIVMTQTPLSSPVTLGQPASISCRSSQSLVHSNGNTYLHWLQQRPGQPPRLLIYKVSNRFSGVPDRFSGSGAGTDFTLKISRVEAEDVGVYYCSQSTHVPRTFGQGTKLEIKR , Kd observed: 3.31
